Where these numbers come from: patent US10155768B2

Below: a set of entries, each annotated with reported Remaining (%).
- Procedure text: Evaluation of stability in liver microsome
- Protocol conditions: mouse liver microsome 0.25 mg/mL, 1 μM test compound, 37° C. for 30 minutes
Measurement label: Remaining (%)

[
  {
    "Molecule": "COCc1ccc(NC(=O)c2cn(C3(C)CC3)c3ncnc(N)c23)cc1F [Example 48]",
    "Recorded measurement": 58
  },
  {
    "Molecule": "COCc1ccc(NC(=O)c2c(OCC3CCCCO3)n(C3(C)CC3)c3ncnc(N)c23)cc1 (stereo not shown) [Example 102]",
    "Recorded measurement": 60
  },
  {
    "Molecule": "COCc1ccc(NC(=O)c2c(C#Cc3cn(C)nc3C)n(C3(C)CC3)c3ncnc(N)c23)cc1 [Example 181]",
    "Recorded measurement": 62
  },
  {
    "Molecule": "COCc1ccc(NC(=O)c2cn(C(C)(C)C(F)F)c3ncnc(N)c23)cc1 [Example 50]",
    "Recorded measurement": 53
  },
  {
    "Molecule": "COCc1ccc(NC(=O)c2c(C#Cc3cccc(NCc4ccncc4)c3)n(C3(C)CC3)c3ncnc(N)c23)cc1 [Example 122]",
    "Recorded measurement": 62
  },
  {
    "Molecule": "COCc1ccc(NC(=O)c2c(C#Cc3ccn[nH]3)n(C3(C)CC3)c3ncnc(N)c23)cc1 [Example 129]",
    "Recorded measurement": 54
  },
  {
    "Molecule": "COCc1ccc(NC(=O)c2c(C#Cc3ccc(OC)nc3)n(C3(C)CC3)c3ncnc(N)c23)cc1 [Example 192]",
    "Recorded measurement": 79
  },
  {
    "Molecule": "COCc1ccc(NC(=O)c2c(C#Cc3ccc4c(c3)NCCO4)n(C3(C)CC3)c3ncnc(N)c23)cc1 [Example 158]",
    "Recorded measurement": 85
  },
  {
    "Molecule": "C=Cc1c(C(=O)Nc2ccc(COC)cc2)c2c(N)ncnc2n1C1(C)CC1 [Example 65]",
    "Recorded measurement": 79
  },
  {
    "Molecule": "CC(C)(C)n1cc(C(=O)Nc2ccc(-c3cc[nH]n3)cc2)c2c(N)ncnc21 [Example 80]",
    "Recorded measurement": 50
  },
  {
    "Molecule": "COCc1ccc(NC(=O)c2c(OCC3CCOCC3)n(C3(C)CC3)c3ncnc(N)c23)cc1 [Example 141]",
    "Recorded measurement": 68
  },
  {
    "Molecule": "COCc1ccc(NC(=O)c2c(-c3cn[nH]c3)n(C3(C)CC3)c3ncnc(N)c23)cc1 [Example 167]",
    "Recorded measurement": 80
  },
  {
    "Molecule": "COCc1ccc(NC(=O)c2c(C#Cc3c[nH]c4ccccc34)n(C3(C)CC3)c3ncnc(N)c23)cc1 [Example 121]",
    "Recorded measurement": 74
  },
  {
    "Molecule": "COCc1ccc(NC(=O)c2c(C#Cc3ccc(N)nc3)n(C3(C)CC3)c3ncnc(N)c23)cc1 [Example 155]",
    "Recorded measurement": 64
  },
  {
    "Molecule": "COCc1ccc(NC(=O)c2c(C#Cc3cncc(C#N)c3)n(C3(C)CC3)c3ncnc(N)c23)cc1 [Example 195]",
    "Recorded measurement": 70
  },
  {
    "Molecule": "COCc1ccc(NC(=O)c2c(OCC(C)C)n(C3(C)CC3)c3ncnc(N)c23)cc1 [Example 99]",
    "Recorded measurement": 51
  }
]
